// reported MIC for each item listed
# System: Candida albicans
# ASSAY_NAME: Antifungal activity against Candida albicans ATCC 10231 assessed as growth inhibition after 48 hrs by two-fold serial dilution assay
# Type: functional
# EXPERIMENTAL_PARAMETERS: ATCC 10231, 48 h
# number only, unit µg/mL dropped from output

Answered cases to consult:
-- ask Query (compound): Cc1nc(NC(=S)Nc2ccc(F)cc2)sc1C(=O)NN ; field requested: MIC
-- reply 12.5

-- ask Query (compound): CCOC(=O)c1sc(NC(=O)Nc2ccccc2)nc1C ; field requested: MIC
-- reply 25

-- ask Query (compound): C[C@@H]1[C@H](O)[C@@H](C)/C=C/C=C/C=C/C=C/C=C/C=C/C=C/[C@H](O[C@@H]2O[C@H](C)[C@@H](O)[C@H](N)[C@@H]2O)C[C@@H]2O[C@](O)(C[C@@H](O)C[C@@H](O)[C@H](O)CC[C@@H](O)C[C@@H](O)CC(=O)O[C@H]1C)C[C@H](O)[C@H]2C(=O)O ; field requested: MIC
-- reply 1.56

-- ask Query (compound): Cc1nc(N)sc1C(=O)Nc1ccc(F)cc1 ; field requested: MIC
-- reply 100

Next:
-- ask Query (compound): CCOC(=O)c1sc(NC(=S)Nc2ccc(F)cc2)nc1C ; field requested: MIC
-- reply 25
